B1: HDV Ribozyme (parent)
chain: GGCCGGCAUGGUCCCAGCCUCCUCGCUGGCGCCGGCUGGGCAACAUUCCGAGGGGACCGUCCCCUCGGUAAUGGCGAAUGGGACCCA

variants of: B1; assay: self-cleavage, relative activity (ratio to wild type); higher = more cleavage; co-transcriptional
Listing: self-cleavage of selected variants
The answer should be a number; do not append a unit.

In: Please list self-cleavage recorded for the variant G6U A16U
Out: 0.305

In: Using known records, supply self-cleavage for G28A C41U
Out: 0.0875

In: State its self-cleavage for this variant: G17U U65A
Out: 0.415

In: Please look at this variant and report its self-cleavage: C18U C33U
Out: 0.463

In: Please look at this variant and report its self-cleavage: C14U C57A
Out: 1.07

In: Could you please provide reported self-cleavage for G10C U27A ? Thanks!
Out: 0.939

In: Give the reported value of self-cleavage for this record: A77U A78U
Out: 0.259

In: Answer with reported self-cleavage of A16G U27C
Out: 0.675

---
In: Provide only the value of recorded self-cleavage for U20G A43U
Out: 0.107

In: Give recorded self-cleavage. C24A C41U
Out: 0.354

In: Output measured self-cleavage for this item: G1C C21U
Out: 0
